# Tested on: E. coli JM105
# methodSummary: Chronocoulometric mediated respiration assay (ferricyanide)
# Assay type: cell-based
# protocolConditions: Escherichia coli, JM105; from the concentration series of Table 5
measuredParameter: pIC50
Lab note — pIC50 values are minus log10 of concentrations in M.

Form: Entry = "O=C(N[C@H](CO)[C@H](O)c1ccc([N+](=O)[O-])cc1)C(Cl)Cl" | System = E. coli JM105 | pIC50 = ____
4.32
